Below, each entry is listed with its recorded viability, T/C.
Test system: 885724-159-R-J1-PDC complex spheroid viability
Assay: Anticancer human tumor 885724-159-R-J1-PDC patient-derived pancreatic adenocarcinoma cell line growth inhibition [GQUAD]
Settings: second compound 3.16 µM; first compound 0.316 µM; stronger effect = lower value

{"columns": ["compound", "viability, T/C"],
 "data": [
  ["COc1cccc2c1C(=O)c1c(O)c3c(c(O)c1C2=O)CC(O)(C(=O)CO)CC3OC1CC(N)C(O)C(C)O1 (stereo not given) + Cc1[nH]c2ccc(F)cc2c1-c1nc2c3cccnc3c3ncccc3c2[nH]1", "29.2%"],
  ["COc1cc(C2c3cc4c(cc3C(OC3OC5COC(C)OC5C(O)C3O)C3COC(=O)C23)OCO4)cc(OC)c1O (stereo not given) + Cc1cnc(CNC(=O)c2c(=O)c3ccc(N4CCCN(C)CC4)nc3n3c2sc2ccccc23)cn1", "87.6%"],
  ["O=C(NO)c1cnc(N2CCN(S(=O)(=O)c3ccc4ccccc4c3)CC2)nc1 + Cc1cnc(CNC(=O)c2c(=O)c3ccc(N4CCCN(C)CC4)nc3n3c2sc2ccccc23)cn1", "39.8%"],
  ["Nc1ccn(C2OC(CO)C(O)C2(F)F)c(=O)n1 (stereo not given) + Cc1[nH]c2ccc(F)cc2c1-c1nc2c3cccnc3c3ncccc3c2[nH]1", "28.3%"],
  ["C=CCn1c(=O)c2cnc(Nc3ccc(N4CCN(C)CC4)cc3)nc2n1-c1cccc(C(C)(C)O)n1 + CN(C)c1ccc(Nc2c3ccc(NC(=O)CCN4CCCC4)cc3nc3cc(NC(=O)CCN4CCCC4)ccc23)cc1", "61.2%"]
]}

###

Tested on: 885724-159-R-J1-PDC complex spheroid viability
Assay: Anticancer human tumor 885724-159-R-J1-PDC cell line growth inhibition [GQUAD];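 further: spheroids exposed to agents for seven days before readout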;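 on viability, T/C: percent of vehicle control viability where 100% = DMSO wells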
Details: second compound 0.1 µM; first compound 3.16 µM; stronger effect = lower value
# strict inequality: viability, T/C < 80% yields 1.0, everything else yields 0.0

{"columns": ["molecule", "label_class"],
 "data": [
  ["CC1COCCN1c1cc(C2(S(C)(=N)=O)CC2)nc(-c2ccnc3[nH]ccc23)n1 (stereo unspecified) + Cc1[nH]c2ccc(F)cc2c1-c1nc2c3cccnc3c3ncccc3c2[nH]1", 1.0],
  ["C=CC(=O)N1CCN(c2nc(=O)n(-c3c(C)ccnc3C(C)C)c3nc(-c4c(O)cccc4F)c(F)cc23)C(C)C1 (stereo unspecified) + CN(C)c1ccc(Nc2c3ccc(NC(=O)CCN4CCCC4)cc3nc3cc(NC(=O)CCN4CCCC4)ccc23)cc1", 0.0],
  ["Cc1cccc(N(C)C(=O)C2C(O)CCN2c2nc(C)cc(C(F)(F)F)c2C#N)c1 (stereo unspecified) + Cc1cnc(CNC(=O)c2c(=O)c3ccc(N4CCCN(C)CC4)nc3n3c2sc2ccccc23)cn1", 0.0],
  ["CC(C)n1c(=O)n(C)c2cnc3cc(F)c(-c4ccc(OCCCN5CCCCC5)nc4)cc3c21 + Cc1cnc(CNC(=O)c2c(=O)c3ccc(N4CCCN(C)CC4)nc3n3c2sc2ccccc23)cn1", 0.0],
  ["CC(=O)O[C@H]1C(=O)[C@@]2(C)[C@H]([C@H](OC(=O)c3ccccc3)[C@]3(O)C[C@H](OC(=O)[C@H](O)[C@@H](NC(=O)c4ccccc4)c4ccccc4)C(C)=C1C3(C)C)[C@]1(OC(C)=O)CO[C@@H]1C[C@@H]2O + Cc1cnc(CNC(=O)c2c(=O)c3ccc(N4CCCN(C)CC4)nc3n3c2sc2ccccc23)cn1", 0.0],
  ["C=CCn1c(=O)c2cnc(Nc3ccc(N4CCN(C)CC4)cc3)nc2n1-c1cccc(C(C)(C)O)n1 + CN(C)c1ccc(Nc2c3ccc(NC(=O)CCN4CCCC4)cc3nc3cc(NC(=O)CCN4CCCC4)ccc23)cc1", 1.0],
  ["O=c1[nH]cc(F)c(=O)[nH]1 + CN(C)c1ccc(Nc2c3ccc(NC(=O)CCN4CCCC4)cc3nc3cc(NC(=O)CCN4CCCC4)ccc23)cc1", 0.0],
  ["O=C(c1cc(Cc2n[nH]c(=O)c3ccccc23)ccc1F)N1CCN(C(=O)C2CC2)CC1 + CN(C)c1ccc(Nc2c3ccc(NC(=O)CCN4CCCC4)cc3nc3cc(NC(=O)CCN4CCCC4)ccc23)cc1", 0.0],
  ["O=C(c1cc(Cc2n[nH]c(=O)c3ccccc23)ccc1F)N1CCN(C(=O)C2CC2)CC1 + Cc1[nH]c2ccc(F)cc2c1-c1nc2c3cccnc3c3ncccc3c2[nH]1", 0.0],
  ["Nc1ccn(C2OC(CO)C(O)C2(F)F)c(=O)n1 (stereo unspecified) + Cc1[nH]c2ccc(F)cc2c1-c1nc2c3cccnc3c3ncccc3c2[nH]1", 1.0],
  ["COc1ccc([C@@H](O)c2cc(-c3ncnc4cc(N5CCOCC5)ccc34)c(F)cc2Cl)nn1 + Cc1[nH]c2ccc(F)cc2c1-c1nc2c3cccnc3c3ncccc3c2[nH]1", 1.0],
  ["CC(C)n1c(=O)n(C)c2cnc3cc(F)c(-c4ccc(OCCCN5CCCCC5)nc4)cc3c21 + CN(C)c1ccc(Nc2c3ccc(NC(=O)CCN4CCCC4)cc3nc3cc(NC(=O)CCN4CCCC4)ccc23)cc1", 0.0],
  ["CC1COCCN1c1cc(C2(S(C)(=N)=O)CC2)nc(-c2ccnc3[nH]ccc23)n1 (stereo unspecified) + Cc1cnc(CNC(=O)c2c(=O)c3ccc(N4CCCN(C)CC4)nc3n3c2sc2ccccc23)cn1", 0.0],
  ["COc1cccc2c1C(=O)c1c(O)c3c(c(O)c1C2=O)CC(O)(C(=O)CO)CC3OC1CC(N)C(O)C(C)O1 (stereo unspecified) + CN(C)c1ccc(Nc2c3ccc(NC(=O)CCN4CCCC4)cc3nc3cc(NC(=O)CCN4CCCC4)ccc23)cc1", 1.0],
  ["C=CCn1c(=O)c2cnc(Nc3ccc(N4CCN(C)CC4)cc3)nc2n1-c1cccc(C(C)(C)O)n1 + Cc1[nH]c2ccc(F)cc2c1-c1nc2c3cccnc3c3ncccc3c2[nH]1", 1.0],
  ["COc1cccc2c1C(=O)c1c(O)c3c(c(O)c1C2=O)CC(O)(C(=O)CO)CC3OC1CC(N)C(O)C(C)O1 (stereo unspecified) + Cc1cnc(CNC(=O)c2c(=O)c3ccc(N4CCCN(C)CC4)nc3n3c2sc2ccccc23)cn1", 1.0],
  ["Nc1ccn(C2OC(CO)C(O)C2(F)F)c(=O)n1 (stereo unspecified) + CN(C)c1ccc(Nc2c3ccc(NC(=O)CCN4CCCC4)cc3nc3cc(NC(=O)CCN4CCCC4)ccc23)cc1", 1.0]
]}

###

As shown below, each of these compounds has a reported IC50 value.
System: 885724-159-R-J1-PDC complex spheroid viability
Experiment: Anticancer human tumor 885724-159-R-J1-PDC cell line growth inhibition [GQUAD];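 further: spheroids exposed to agents for seven days before readout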
Settings: curve of first compound; second compound 3.16 µM
experimental_readout: IC50

{"columns": ["compound", "endpoint_result"],
 "data": [
  ["CC(C)(O)C1CCC(Nc2ccc3ncc(-c4cccc(C(F)(F)F)c4)n3n2)CC1 (stereo not given) + CN(C)c1ccc(Nc2c3ccc(NC(=O)CCN4CCCC4)cc3nc3cc(NC(=O)CCN4CCCC4)ccc23)cc1", "764 nM"],
  ["CC1COCCN1c1cc(-c2ccnn2C)c2ccnc(-c3ccn[nH]3)c2n1 (stereo not given) + CN(C)c1ccc(Nc2c3ccc(NC(=O)CCN4CCCC4)cc3nc3cc(NC(=O)CCN4CCCC4)ccc23)cc1", "1680 nM"],
  ["C=CCn1c(=O)c2cnc(Nc3ccc(N4CCN(C)CC4)cc3)nc2n1-c1cccc(C(C)(C)O)n1 + Cc1cnc(CNC(=O)c2c(=O)c3ccc(N4CCCN(C)CC4)nc3n3c2sc2ccccc23)cn1", "> 10000 nM"],
  ["O=C(NO)c1cnc(N2CCN(S(=O)(=O)c3ccc4ccccc4c3)CC2)nc1 + Cc1[nH]c2ccc(F)cc2c1-c1nc2c3cccnc3c3ncccc3c2[nH]1", "< 31.6 nM"],
  ["COc1cccc2c1C(=O)c1c(O)c3c(c(O)c1C2=O)CC(O)(C(=O)CO)CC3OC1CC(N)C(O)C(C)O1 (stereo not given) + Cc1[nH]c2ccc(F)cc2c1-c1nc2c3cccnc3c3ncccc3c2[nH]1", "37.4 nM"],
  ["C=CC(=O)N1CCN(c2nc(=O)n(-c3c(C)ccnc3C(C)C)c3nc(-c4c(O)cccc4F)c(F)cc23)C(C)C1 (stereo not given) + CN(C)c1ccc(Nc2c3ccc(NC(=O)CCN4CCCC4)cc3nc3cc(NC(=O)CCN4CCCC4)ccc23)cc1", "> 10000 nM"],
  ["C#Cc1c(F)ccc2cc(O)cc(-c3ncc4c(N5CC6CCC(C5)N6)nc(OCC56CCCN5CC(F)C6)nc4c3F)c12 (stereo not given) + Cc1[nH]c2ccc(F)cc2c1-c1nc2c3cccnc3c3ncccc3c2[nH]1", "< 31.6 nM"],
  ["Cn1ncnc1[C@H]1c2n[nH]c(=O)c3cc(F)cc(c23)N[C@@H]1c1ccc(F)cc1 + CN(C)c1ccc(Nc2c3ccc(NC(=O)CCN4CCCC4)cc3nc3cc(NC(=O)CCN4CCCC4)ccc23)cc1", "> 316 nM"],
  ["Cc1[nH]c2ccccc2c1CCNCc1ccc(/C=C/C(=O)NO)cc1 + CN(C)c1ccc(Nc2c3ccc(NC(=O)CCN4CCCC4)cc3nc3cc(NC(=O)CCN4CCCC4)ccc23)cc1", "92.9 nM"],
  ["COc1cc(C2c3cc4c(cc3C(OC3OC5COC(C)OC5C(O)C3O)C3COC(=O)C23)OCO4)cc(OC)c1O (stereo not given) + CN(C)c1ccc(Nc2c3ccc(NC(=O)CCN4CCCC4)cc3nc3cc(NC(=O)CCN4CCCC4)ccc23)cc1", "> 10000 nM"]
]}
